experiment description: growth suppression of beta-catenin knockout HCT116, pilot screen, human colon tumor cells (AID 823);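 note: 0% = wells killed by 20 µM Hyamine and 100% = untreated DMSO cell wells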
particulars: CellTiter-Glo, 60 h, at 10 µM, hits give low values
Results filed as inconclusive are left out.
List of viability values.
Numbers only; they are read as %.

The cases that follow already have their viability on record.
COC(=O)C1=C(C)N(C)C(C)=C(C(=O)OC)C1c1ccsc1    91.4
CCc1ccccc1S(=O)(=O)Cc1ccc(C(=O)NCc2ccc3c(c2)OCO3)o1    95.7
Cc1cccc(NC(=O)Cn2cnc3c(cnn3-c3ccc(F)cc3)c2=O)c1C    29.6
CCN(CC)S(=O)(=O)c1cc(Br)ccc1OC    94.8

Switching to the query record.
According to the records, this compound Oc1c(C(c2ccccc2)N2CCCCC2)sc2ncnn12 (centres undefined) displays viability of 95.7

* * *

experiment description: growth suppression of PTEN-deleted HCT116, pilot screen, cell-based, HCT116 clonal line, CellTiter-Glo (AID 824);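 note: 0% = 20 µM Hyamine control and 100% = vehicle cell control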
particulars: 60 h, at 10 µM, hits give low values
Records with an inconclusive call do not appear.
List of viability values.
Numbers only; they are read as %.

The cases that follow already have their viability on record.
COc1ccc(C2CC(C(F)(F)F)n3nc(C(=O)O)c(Cl)c3N2)cc1OC (configuration not stated)    97.6
Cc1ccc(S(=O)(=O)N2CCN(C(=O)CCC(=O)N3CCc4ccccc43)CC2)cc1    99.4
COc1ccc(Cl)cc1S(=O)(=O)N1CCN=C1C    90
O=C(NCc1cccnc1)c1nnc(Cc2ccc(F)cc2)o1    103
CNc1nc(-c2ccc(Cl)cc2)cs1    87.8

According to the records, this molecule CCOC(=O)C1Cc2ccccc2C(=O)O1 (configuration not stated) displays viability of 100

According to the records, this molecule "CNC(=O)CN1C(=O)CSc2ncccc21" displays viability of 92.2

According to the records, this molecule "COc1ccc2[nH]c(C)c(CN3CCC(C)CC3)c(=O)c2c1" displays viability of 90.8

According to the records, this molecule O=C(NC1CCCCCC1)C1C2C=CC3(CN(Cc4cccnc4)C(=O)C13)O2 (configuration not stated) displays viability of 107

* * *

experiment description: Restrictive medium S. cerevisiae growth inhibition, OD615, pilot screen of yeast lifespan reduction project, restrictive growth control (AID 706);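 note: modified DeaD lifespan yeast strain shifted to restrictive glucose medium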
particulars: OD615, 48 h, at 10 µM
Activity calls are given as the source filed them.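 The calls were made as follows: active = growth inhibition above a set limit, 3 SD over mean compound inhibition, in both replicates (cut at about 43% in these data); inconclusive = above the limit in only one replicate; inactive = at or below the limit in both replicates.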
Choose the fitting class; nothing outside active, inactive is accepted.

**Query** Give the logged outcome of this assay for the following molecule: "COc1cc(C(=O)N2CCN(c3ccc(C)cc3C)CC2)cc(OC)c1OC"
**Result** inactive

**Query** Give the logged outcome of this assay for the following molecule: "COc1ccccc1C(=O)Nc1ccc2c(c1)OCO2"
**Result** inactive

**Query** Give the logged outcome of this assay for the following molecule: "Brc1[nH]nc2ccccc12"
**Result** inactive

* * *

experiment description: growth suppression of yeast trafficking mutant, preliminary HTS, modulators of trafficking downstream of Golgi apparatus project, 1536-format plate, OD 615 nm (AID 637)
particulars: yeast transport mutant growth, absorbance 615 nm, 18 h; hits give high values
Activity calls are given as the source filed them. Rule as the data show it: active = inhibition above about 30%; inactive = the rest.
List of inhibition values.

CC(=O)Nc1ccc(OC(=O)c2cccnc2)cc1    -3.17% (inactive)
CCOc1ccc(OCC)c(NC(=O)CCCN2C(=O)c3cccnc3C2=O)c1    7.14% (inactive)
O=C(CCC(=O)OCCCC(F)(F)C(F)(F)F)NC1CCCCC1    -3.23% (inactive)
CCc1ccccc1NC(=O)CSc1ncn[nH]1    -6.33% (inactive)
CCOc1ccccc1C1CC(=O)NC(SCC)=C1C#N (stereo unspecified)    -2.17% (inactive)

Switching to the query record.
According to the records, this molecule "COCc1nnc(NC(=O)CCCOc2ccccc2)s1" displays inhibition of -3.97% (inactive)
